Data origin: the supplement of paper PMC12808144

- Test system: Mel-DCC-11-R
- ASSAY_INFO: cell viability relative to DMSO control (fraction of DMSO control); higher = less cytotoxic, active = 0.8 or less
- PARTICULARS: 1 µM; 120 h; vemurafenib co-treatment 0 µM
PROPERTY_LABEL: cell viability

• C[C@@H](Oc1cc(-c2cnn(C3CCNCC3)c2)cnc1N)c1c(Cl)ccc(F)c1Cl = 1.16
• CCc1cnn2c(NCc3ccc[n+]([O-])c3)cc(N3CCCC[C@H]3CCO)nc12 = 0.062
• CCN(CC)CCNC(=O)c1c(C)[nH]c(/C=C2\C(=O)Nc3ccc(F)cc32)c1C = 1.16
• CCN1CCN(Cc2ccc(Nc3ncc(F)c(-c4cc(F)c5nc(C)n(C(C)C)c5c4)n3)nc2)CC1 = 1.38
• Cc1c(C)c2c(c(C)c1O)CCC(C)(COc1ccc(CC3SC(=O)NC3=O)cc1)O2 (centres undefined) = 1.01
• Cl.NNc1nncc2ccccc12 [Hydralazine hydrochloride] = 1.03
• CN1CCN(c2ccc3nc(-c4c(N)c5c(F)cccc5[nH]c4=O)[nH]c3c2)CC1 = 1.05
• CN(C)N=Nc1[nH]cnc1C(N)=O = 1.04
• CCc1c2c(nc3ccc(OC(=O)N4CCC(N5CCCCC5)CC4)cc13)-c1cc3c(c(=O)n1C2)COC(=O)[C@]3(O)CC.Cl.O.O.O [Irinotecan hydrochloride trihydrate] = 1.32
• CC/C(=C(\c1ccc(O)cc1)c1ccc(OCCNC)cc1)c1ccccc1 [(E/Z)-Endoxifen] = 1.15
• CO[C@H]1C[C@@H]2CC[C@@H](C)[C@@](O)(O2)C(=O)C(=O)N2CCCC[C@H]2C(=O)O[C@H]([C@H](C)C[C@@H]2CC[C@@H](OC(=O)C(C)(CO)CO)[C@H](OC)C2)CC(=O)[C@H](C)/C=C(\C)[C@@H](O)[C@@H](OC)C(=O)[C@H](C)C[C@H](C)/C=C/C=C/C=C/1C = 1.53
• CN(C)C(=O)c1cc2cnc(Nc3ccc(N4CCNCC4)cn3)nc2n1C1CCCC1 = 1.25
• Cc1ccc(NC(=O)c2ccc(CN3CCN(C)CC3)cc2)cc1Nc1nccc(-c2cccnc2)n1 = 0.978
• Cc1nc2ccc(CN(C)c3ccc(C(=O)N[C@@H](CCC(=O)O)C(=O)O)s3)cc2c(=O)[nH]1 = 1.16
